system under test: KRAS G12D (Homo sapiens (Human), UniProt P01116+P62937, G12D)
Sequence (P01116 other isoform, or with tags, fused parts or gaps G12D): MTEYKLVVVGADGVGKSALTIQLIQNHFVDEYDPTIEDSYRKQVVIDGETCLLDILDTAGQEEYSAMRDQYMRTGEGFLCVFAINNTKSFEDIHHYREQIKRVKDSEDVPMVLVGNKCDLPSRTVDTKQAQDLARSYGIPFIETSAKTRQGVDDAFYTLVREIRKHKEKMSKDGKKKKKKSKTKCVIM
Sequence (P62937 whole entry): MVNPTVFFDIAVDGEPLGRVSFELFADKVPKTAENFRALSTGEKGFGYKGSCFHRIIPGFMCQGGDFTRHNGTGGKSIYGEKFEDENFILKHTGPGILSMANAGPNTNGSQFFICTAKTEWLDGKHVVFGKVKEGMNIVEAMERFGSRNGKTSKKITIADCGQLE
assay comment: Ras-Raf disruption/FRET/MOA assay (BRAF RBD, Cyclophilin A)
Format: biochemical
conditions used: read-out: KRAS G12D FRET IC50
pIC50: −log10 of the molar value.
Below, each of the molecules is paired with its reported pIC50 value.
result type: pIC50

[[record]]
molecule = "CCn1c(-c2cccnc2[C@H](C)OC)c2c3cc(ccc31)-c1cc(cc3nc[nH]c13)C[C@H](NC(=O)[C@H](C(C)C)N(C)C(C)=O)C(=O)N1CCC[C@H](N1)C(=O)OCC(C)(C)C2 [Compound A153]"
result = "< 5.00"

[[record]]
molecule = "CCn1c(-c2cccnc2[C@H](C)OC)c2c3cc(ccc31)-c1csc(n1)C[C@H](NC(=O)[C@H](C(C)C)N(C)C(=O)N1CC(N3CCOCC3)C1)C(=O)N1CCC[C@H](N1)C(=O)OCC(C)(C)C2 [Compound A338]"
result = "5.00 to 6.00"

[[record]]
molecule = "CCn1c(-c2cccnc2[C@H](C)OC)c2c3cc(ccc31)-c1cc(O)cc(c1)C[C@H](NC(=O)[C@H](C(C)C)N(C)C(=O)[C@H]1CNC[C@@H]1C)C(=O)N1CCC[C@H](N1)C(=O)OCC(C)(C)C2 [Compound A251]"
result = "6.00 to 7.00"

[[record]]
molecule = "CCn1c(-c2cccnc2[C@H](C)OC)c2c3cc(ccc31)-c1csc(n1)C[C@H](NC(=O)[C@H](C(C)C)N(C)C(=O)N1CC3(CC(NCCOC)C3)C1)C(=O)N1CCC[C@H](N1)C(=O)OCC(C)(C)C2 [Compound A512]"
result = "5.00 to 6.00"

[[record]]
molecule = "CCn1c(-c2cccnc2[C@H](C)OC)c2c3cc(ccc31)-c1cc(O)cc(c1)C[C@H](NC(=O)[C@H](C(C)C)N(C)C(=O)[C@@H]1C[C@@H]1C)C(=O)N1CCC[C@H](N1)C(=O)OCC(C)(C)C2 [Compound A223]"
result = "7.00 to 8.00"

[[record]]
molecule = "CCn1c(-c2cnccc2COC)c2c3cc(ccc31)-c1cc(O)cc(c1)C[C@H](NC(=O)[C@H](C(C)C)N(C)C(=O)[C@H]1CCN(C3CCOCC3)C1)C(=O)N1CCC[C@H](N1)C(=O)OCC(C)(C)C2 [Compound A45]"
result = "6.00 to 7.00"

[[record]]
molecule = "CCn1c(-c2cccnc2[C@H](C)OC)c2c3cc(ccc31)-c1cc(O)cc(c1)C[C@H](NC(=O)[C@H](C(C)C)N(C)C(=O)C1CCC1)C(=O)N1CCC[C@H](N1)C(=O)OCC(C)(C)C2 [Compound A218]"
result = "6.00 to 7.00"

[[record]]
molecule = "CCn1c(-c2cccnc2[C@H](C)OC)c2c3cc(ccc31)-c1csc(n1)C[C@H](NC(=O)[C@H](C(C)C)N(C)S(=O)(=O)N1CC(OC)C1)C(=O)N1CCC[C@H](N1)C(=O)OCC(C)(C)C2 [Compound A322]"
result = "5.00 to 6.00"

[[record]]
molecule = "CCn1c(-c2cccnc2[C@H](C)OC)c2c3cc(ccc31)-c1cc(O)cc(c1)C[C@H](NC(=O)[C@H](C(C)C)N(C)C(=O)C13CC(CO1)C3)C(=O)N1CCC[C@H](N1)C(=O)OCC(C)(C)C2 [Compound A406]"
result = "6.00 to 7.00"


###

system under test: NRAS Q61K (Homo sapiens (Human), UniProt P01111+P62937, Q61K)
Sequence (P01111 whole entry Q61K, one chain of several): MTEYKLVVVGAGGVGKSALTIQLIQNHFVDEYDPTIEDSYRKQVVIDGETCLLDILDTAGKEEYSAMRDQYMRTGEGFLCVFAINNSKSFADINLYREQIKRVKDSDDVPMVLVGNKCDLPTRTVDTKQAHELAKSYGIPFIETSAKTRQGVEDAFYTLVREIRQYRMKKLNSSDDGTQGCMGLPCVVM
assay comment: Ras-Raf disruption/FRET/MOA assay (BRAF RBD, Cyclophilin A)
Type: biochemical
pIC50: −log10 of the molar value.
result type: pIC50

[[record]]
compound = "CCn1c(-c2cccnc2[C@H](C)OC)c2c3cc(ccc31)-c1cc(O)cc(c1)C[C@H](NC(=O)[C@H](C(C)C)N(C)C(=O)C13CC(CO1)C3)C(=O)N1CCC[C@H](N1)C(=O)OCC(C)(C)C2 [Compound A406]"
result_type = "pIC50"
result = "6.00 to 7.00"

[[record]]
compound = "CCn1c(-c2cccnc2[C@H](C)OC)c2c3cc(ccc31)-c1csc(n1)C[C@H](NC(=O)[C@H](C(C)C)N(C)C(=O)N1CC(O)(CN(C)C)C1)C(=O)N1CCC[C@H](N1)C(=O)OCC(C)(C)C2 [Compound A597]"
result_type = "pIC50"
result = "6.00 to 7.00"


###

system under test: NRAS G12C (Homo sapiens (Human), UniProt P01111+P62937, G12C)
Sequence (P01111 whole entry G12C, one chain of several): as the sequence (P01111 whole entry Q61K, one chain of several) above, with G12C, K61Q counted along it
assay comment: Ras-Raf disruption/FRET/MOA assay (BRAF RBD, Cyclophilin A)
Format: biochemical
conditions used: read-out: NRAS G12C FRET data IC50
result type: IC50

[[record]]
smiles_string = "CCn1c(-c2cccnc2[C@H](C)OC)c2c3cc(ccc31)-c1cc(O)cc(c1)C[C@H](NC(=O)[C@H](C(C)C)N(C)C(=O)[C@H]1CCN(C(=O)OC3CC3)C1)C(=O)N1CCC[C@H](N1)C(=O)OCC(C)(C)C2"
system_under_test = "NRAS G12C (Homo sapiens (Human), UniProt P01111+P62937, G12C)"
result = "0.01 to 0.1 µM"

[[record]]
smiles_string = "CCn1c(-c2cccnc2[C@H](C)OC)c2c3cc(ccc31)-c1csc(n1)C[C@H](NC(=O)[C@H](C(C)C)N(C)C(=O)N1CC(C(=O)N3CCOCC3)C1)C(=O)N1CCC[C@H](N1)C(=O)OCC(C)(C)C2"
system_under_test = "NRAS G12C (Homo sapiens (Human), UniProt P01111+P62937, G12C)"
result = "0.01 to 0.1 µM"

[[record]]
smiles_string = "CCn1c(-c2cc(N3CCN(C)CC3)cnc2[C@H](C)OC)c2c3cc(ccc31)-c1csc(n1)C[C@H](NC(=O)[C@H](C(C)C)N(C)C(=O)[C@H]1CCCS1(=O)=O)C(=O)N1CCC[C@H](N1)C(=O)OCC(C)(C)C2"
system_under_test = "NRAS G12C (Homo sapiens (Human), UniProt P01111+P62937, G12C)"
result = "0.1 to 1 µM"

[[record]]
smiles_string = "CCn1c(-c2cccnc2[C@H](C)OC)c2c3cc(ccc31)-c1cc(O)cc(c1)C[C@H](NC(=O)[C@H](C(C)C)N(C)C(=O)[C@H]1CCN(C(=O)[C@@H]3CCCN3)C1)C(=O)N1CCC[C@H](N1)C(=O)OCC(C)(C)C2"
system_under_test = "NRAS G12C (Homo sapiens (Human), UniProt P01111+P62937, G12C)"
result = "0.01 to 0.1 µM"


###

system under test: NRAS Q61R (Homo sapiens (Human), UniProt P01111+P62937, Q61R)
Sequence (P01111 whole entry Q61R): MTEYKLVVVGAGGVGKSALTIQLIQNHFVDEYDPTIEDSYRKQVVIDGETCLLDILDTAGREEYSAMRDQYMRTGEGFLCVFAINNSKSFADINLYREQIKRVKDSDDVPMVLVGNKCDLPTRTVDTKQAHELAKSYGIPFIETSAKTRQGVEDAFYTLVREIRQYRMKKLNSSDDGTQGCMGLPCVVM
Sequence (P62937 whole entry): as the sequence (P62937 whole entry) above
assay comment: Ras-Raf disruption/FRET/MOA assay (BRAF RBD, Cyclophilin A)
Assay type: biochemical
result type: IC50

[[record]]
compound = "CCn1c(-c2cccnc2[C@H](C)OC)c2c3cc(ccc31)-c1csc(n1)C[C@H](NC(=O)[C@H](C(C)C)N1C[C@@H](c3ccccc3)CC1=O)C(=O)N1CCC[C@H](N1)C(=O)OCC(C)(C)C2 (single isomer, unassigned)"
result = "1000 to 10000 nM"

[[record]]
compound = "CCn1c(-c2cccnc2[C@H](C)OC)c2c3cc(ccc31)-c1cc(O)cc(c1)C[C@H](NC(=O)[C@H](C(C)C)N(C)C(=O)[C@H]1CCC(=O)O1)C(=O)N1CCC[C@H](N1)C(=O)OCC(C)(C)C2"
result = "100 to 1000 nM"

[[record]]
compound = "CCn1c(-c2cccnc2[C@H](C)OC)c2c3cc(ccc31)-c1cc(O)cc(c1)C[C@H](NC(=O)[C@@H]1[C@H]3C[C@H]3CN1C(C)=O)C(=O)N1CCC[C@H](N1)C(=O)OCC(C)(C)C2"
result = "1000 to 10000 nM"

[[record]]
compound = "CCn1c(-c2cccnc2[C@H](C)OC)c2c3cc(ccc31)-c1csc(n1)C[C@H](NC(=O)[C@H](C(C)C)N(C)C(=O)N1CC([C@H](CO)OC)C1)C(=O)N1CCC[C@H](N1)C(=O)OCC(C)(C)C2"
result = "100 to 1000 nM"

[[record]]
compound = "CCn1c(-c2cccnc2[C@H](C)OC)c2c3cc(ccc31)-c1csc(n1)[C@@H](OC)[C@H](NC(=O)[C@H](C(C)C)N(C)C(=O)N(C)C)C(=O)N1CCC[C@H](N1)C(=O)OCC(C)(C)C2"
result = "100 to 1000 nM"

[[record]]
compound = "CCn1c(-c2cccnc2[C@H](C)OC)c2c3cc(ccc31)-c1csc(n1)C[C@H](NC(=O)[C@H](C(C)C)N(C)C(=O)N1CCO[C@H](c3ccccc3)C1)C(=O)N1CCC[C@H](N1)C(=O)OCC(C)(C)C2"
result = "100 to 1000 nM"

[[record]]
compound = "CCn1c(-c2cccnc2[C@H](C)OC)c2c3cc(ccc31)-c1csc(n1)C[C@H](NC(=O)[C@H](C(C)C)N(C)C(=O)N1CC3(CC(N(C)C(C)C)C3)C1)C(=O)N1CCC[C@H](N1)C(=O)OCC(C)(C)C2"
result = "100 to 1000 nM"

[[record]]
compound = "CCn1c(-c2cccnc2[C@H](C)OC)c2c3cc(ccc31)-c1csc(n1)C[C@H](NC(=O)[C@H](C(C)C)N(C)C(=O)N1CCCC3(CN(C)C3)C1)C(=O)N1CCC[C@H](N1)C(=O)OCC(C)(C)C2"
result = "100 to 1000 nM"

[[record]]
compound = "CCn1c(-c2cccnc2[C@H](C)OC)c2c3cc(ccc31)-c1cc(O)cc(c1)C[C@H](NC(=O)[C@H](C(C)C)N(C)C(=O)N1CC(N(C)C)C1)C(=O)N1CCC[C@H](N1)C(=O)OCC(C)(C)C2"
result = "100 to 1000 nM"

[[record]]
compound = "CCn1c(-c2cccnc2[C@H](C)OC)c2c3cc(ccc31)-c1cc(O)cc(c1)C[C@H](NC(=O)[C@H](C(C)C)N(C)C(=O)[C@]1(F)CCN(C(=O)OC)C1)C(=O)N1CCC[C@H](N1)C(=O)OCC(C)(C)C2"
result = "100 to 1000 nM"

[[record]]
compound = "CCn1c(-c2cccnc2[C@H](C)OC)c2c3cc(ccc31)-c1csc(n1)C[C@H](NC(=O)[C@H](C(C)C)N(C)C(=O)N(C)C[C@H]1CCN1C)C(=O)N1CCC[C@H](N1)C(=O)OCC(C)(C)C2"
result = "1000 to 10000 nM"

[[record]]
compound = "CCn1c(-c2cccnc2[C@H](C)OC)c2c3cc(ccc31)-c1csc(n1)C[C@H](NC(=O)[C@H](C(C)C)N(C)C(=O)N1C[C@H]3CN(C)CC[C@H]31)C(=O)N1CCC[C@H](N1)C(=O)OCC(C)(C)C2"
result = "1000 to 10000 nM"

[[record]]
compound = "CCn1c(-c2cccnc2[C@H](C)OC)c2c3cc(ccc31)-c1csc(n1)C[C@H](NC(=O)[C@H](C(C)C)N(C)C(=O)N1CC(C(=O)O)C1)C(=O)N1CCC[C@H](N1)C(=O)OCC(C)(C)C2"
result = "100 to 1000 nM"

[[record]]
compound = "CCn1c(-c2cccnc2[C@H](C)OC)c2c3cc(ccc31)-c1csc(n1)C[C@H](NC(=O)[C@H](C(C)C)N(C)C(=O)[C@H]1[C@@H]3CNC[C@@H]31)C(=O)N1CCC[C@H](N1)C(=O)OCC(C)(C)C2"
result = "1000 to 10000 nM"

[[record]]
compound = "CCn1c(-c2cccnc2[C@H](C)OC)c2c3cc(ccc31)-c1csc(n1)C[C@H](NC(=O)[C@H](C(C)C)N(C)C(=O)N1CC[C@]3(CCNC3=O)C1)C(=O)N1CCC[C@H](N1)C(=O)OCC(C)(C)C2"
result = "1000 to 10000 nM"

[[record]]
compound = "CCn1c(-c2cccnc2[C@H](C)OC)c2c3cc(ccc31)-c1csc(n1)C[C@H](NC(=O)[C@H](C(C)C)N(C)C(=O)N1CC([C@H](C)COC)C1)C(=O)N1CCC[C@H](N1)C(=O)OCC(C)(C)C2"
result = "100 to 1000 nM"

[[record]]
compound = "CCn1c(-c2cccnc2[C@H](C)OC)c2c3cc(ccc31)-c1csc(n1)C[C@H](NC(=O)[C@H](C(C)C)N(C)C(=O)N1CC(S(C)(=O)=O)C1)C(=O)N1CCC[C@H](N1)C(=O)OCC(C)(C)C2"
result = "100 to 1000 nM"

